This collection of values is drawn from the supplement of paper PMC10126150.

- Tested on: ATP;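 also: ATP exposure 15 min at 22 °C before imaging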
- Method summary: switch fluorescence ratio, 500 uM ATP over buffer (Cy3 cluster intensity, sum of 5 cycles each) (fold (ratio)); higher = stronger signal-on switching upon ATP binding; sequences stand for … in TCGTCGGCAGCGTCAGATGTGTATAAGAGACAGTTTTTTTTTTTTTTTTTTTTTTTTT…TC
- Experimental parameters: aptamer strand: ATP DNA aptamer (quencher-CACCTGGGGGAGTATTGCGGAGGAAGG + anchor), 100 nM annealed; ATP concentration: 500 uM
Measurement label: switch fluorescence ratio

    ordered_residues  number
 0        GAGTGTGAAA   0.978
 1        TGATAGAGGA   0.988
 2        GGTTGTGGGT   0.996
 3        AGGGGGGTTG       1
 4        GATAATTTCT   0.989
 5        GCTTATTGTA   0.981
 6        TCGATTTTTT    1.01
 7        TTATAAGTAT       1
 8        AAATTCGGGC   0.973
 9        GAAGGCAGGG   0.986
10        TCAGTTGTAT   0.979
11        TTAAGACTGT    1.01
12        TTGTGTTTCT   0.997
13        TGATAATGTT   0.997
